Give measured Ki for each item. Keep answers brief.
- experimental_system: Carbonic anhydrase 2, isoform A (Drosophila melanogaster, UniProt Q9VTU8)
- Sequence (Q9VTU8 whole entry): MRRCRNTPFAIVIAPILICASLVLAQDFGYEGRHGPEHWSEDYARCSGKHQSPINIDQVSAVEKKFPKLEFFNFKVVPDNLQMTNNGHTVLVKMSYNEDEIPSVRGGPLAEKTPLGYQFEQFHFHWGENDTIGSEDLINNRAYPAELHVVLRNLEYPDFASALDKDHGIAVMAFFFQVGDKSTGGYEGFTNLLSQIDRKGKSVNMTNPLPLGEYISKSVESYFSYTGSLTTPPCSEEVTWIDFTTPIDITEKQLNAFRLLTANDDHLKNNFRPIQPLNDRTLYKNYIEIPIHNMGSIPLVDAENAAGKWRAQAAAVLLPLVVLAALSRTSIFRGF
- method_notes: Inhibition of Drosophila melanogaster recombinant carbonic anhydrase-2 expressed in Escherichia coli BL21 (DE3) preincubated for 15 mins by CO2 hydration stopped-flow assay
Structures can show the parent of a compound that is named as a salt.
Give bare numbers, in nM.

* S=C(S)NCCN1CCOCC1 | 10.4

Dear reader, for each entry below, please note its Ki.
1. O=C(O)CNC(=S)S
2. CN(Cc1ccccc1)C(=S)S [SODIUM BENZYL(METHYL)CARBAMODITHIOATE]
3. CCCCN(CCCC)C(=S)S [DIBUTYLCARBAMODITHIOATE SODIUM SALT]
4. O=C(O)[C@@H]1CCCN1C(=S)S
5. S=C(S)N1CCN(C(=S)S)CC1 [PIPERAZINECARBAMODITHIOATE DISODIUM SALT]

[76.5, 12.4, 0.5, 13.6, 21.6]
